- Tested on: MDA-MB-231 breast
- methodNotes: NCI-60 one-dose screen, 48 h (100 = growth as untreated, 0 = no growth, -100 = all killed)
- appliedConditions: 10 µM unless noted
This is part of a sample that, as a whole, favours compounds with a hit. Of some 83,000 tested, about 20% had one in any assay.
Criterion: growth strictly under 60%. Met: MET. Not met: NOT MET.

> print(dat)
                                   molecule    class
1  COc1ccc2c(c1)C(=O)/C(=C/c1cccc(OCC(=O)Nc3nc(C)c(C)s3)c1)O2      MET
2  N#C/C(=C\c1ccc2c(c1)OCO2)n1nnc2cc(F)c(F)cc21  NOT MET
3  COc1cccc(-c2nn(-c3ccccc3)cc2-c2ccnc(NCCCNC(=O)Nc3ccc(Cl)c(Cl)c3)c2)c1      MET

Say whether its growth is strictly beneath 60%. Entry: CC1(c2ccccc2)NC(=O)N(NC(=O)CSc2nc(-c3cccs3)nc3ccccc23)C1=O (centres undefined)
NOT MET

# strict comparison: is reported growth < 60%? input = Cc1ccc(-c2cc(-c3ccccc3C)[nH]c(=O)c2C#N)s1
NOT MET

Determine if Cc1cccc(Cc2cnc(NC(=O)c3ccc4nnsc4c3)s2)c1 shows growth strictly lower than 60%.
NOT MET

I'd appreciate it if you could check whether Cc1cc(C(=O)c2ccccc2)c(C)c2c1[nH]c1ccc(Cl)cc12 has growth smaller than 60%.
MET

growth strictly < 60% for this molecule? Cc1ccc2nc(NC(=O)CSc3nc(-c4ccccc4)c(C#N)c(=O)n3Cc3ccccc3)sc2c1
NOT MET

A record lists CCC(CO)Nc1nc2ccc(Cl)cc2c2ccccc12 (centres undefined) . Is its growth below 60%?
MET

---

- Tested on: HCT-116 colon
- methodNotes: NCI-60 one-dose screen, 48 h (100 = growth as untreated, 0 = no growth, -100 = all killed)
- appliedConditions: 10 µM unless noted
Compounds without any hit were thinned out: in the full panel of roughly 83,000, 20% have a hit.
readoutLabel: growth (%)
Only the number, expressed in %, is required.

Previously resolved entries follow.
> print(dat)
                                givensmiles  recordedmeasurement
1  COc1cccc(-c2nn(-c3ccccc3)cc2-c2ccnc(NCCCNC(=O)Nc3ccc(Cl)c(Cl)c3)c2)c1                 2.97
2  CCOC(=O)c1c2c(n3ccc(NC(=O)OC(C)(C)C)cc13)C(=O)c1ncccc1C2=O                -65.8
3  O=C(CSc1nnc(-c2ccc(NC(=O)c3cccnc3)cc2)o1)Nc1cccc(Br)c1                 58.7

Now let's try a different one.
Using the record for COc1ccc(-c2csc(C3=C(O)CN(C(C)C)C3=N)n2)cc1OC , report its growth.
96.3

---

- System: NCI/ADR-RES ovarian
- methodNotes: NCI-60 one-dose screen, 48 h (100 = growth as untreated, 0 = no growth, -100 = all killed)
- appliedConditions: 10 µM unless noted
The panel holds about 83,000 compounds, 20% with a hit somewhere; the sample as a whole holds those more often.
Classify as follows. Reported growth greater than or equal to 30%: met. Reported growth below: not met.

The examples below pair each entry with its known result.
> print(dat)
                                   compound         testedsystem    class
1  Cc1ccc(-n2c(-c3ccccc3)c(-c3ccccc3)c3c(SCC(=O)n4[nH]c(N)cc4=O)ncnc32)cc1  NCI/ADR-RES ovarian      met
2        Fc1ccc(CNc2c3ccccc3nc3ccccc23)cc1F  NCI/ADR-RES ovarian  not met
3  COc1ccc(CN2C(=O)C(Cl)=C(Nc3cccc(C(F)(F)F)c3)C2=O)cc1  NCI/ADR-RES ovarian      met
4  N#Cc1c(N)nc2c(C#N)c(NC(=O)c3ccccc3)nn2c1-c1ccccc1  NCI/ADR-RES ovarian      met
5  COc1ccc2c(c1)O/C(=C\c1cccc(OCC(=O)Nc3nc(C)c(C)s3)c1)C2=O  NCI/ADR-RES ovarian  not met
6  COc1ccc(NC(=O)CSc2nc(C)c(C(C)=O)n2-c2ccc([N+](=O)[O-])cc2)cc1  NCI/ADR-RES ovarian      met

Confirm if growth reported for the compound O=[N+]([O-])c1ccc(C2CC(c3ccccc3)=Nc3ccccc3S2)cc1 (stereo not drawn) is 30% or above.
met

Textbook exercise: given the entry O=C(Nc1cccc(C(F)(F)F)c1)Nc1cccc(C(F)(F)F)c1 , state whether its growth is greater than or equal to 30%.
not met
